Tested on: PA-1
Procedure summary: Primary qHTS to identify gynecologic anti-cancer compounds using libraries of approved drugs and bioactive compounds (AID 1345084); note: % is set by controls: 0 for no effect and ±100 for the full control effect; nearly all actives have a fitted effect of over 55% in size
Assay conditions: Gynecologic cancer cell panel viability, ATPlite luminescence, 48 h; series mostly up to 57.5 µM
Records with an inconclusive call do not appear. Active and inactive are the calls of the source. Calls come from the whole dose curve; as a rule, active = well fitted cell-killing curve with a large enough effect; inconclusive = small, poorly fitted or top-dose-only effect, or effect the other way; inactive = flat fitted curve, though single readings scatter.
Reported metric: activity change, negative = cytotoxicity

// known answers, use as guide
Reported activity change, negative = cytotoxicity for Nc1ncnc2c1ncn2[C@H]1CCCO1 was inactive

Reported activity change, negative = cytotoxicity for CC(/C=C/[C@]1(O)[C@@]2(C)CO[C@@]1(C)C[C@@H](O)C2)=C\C(=O)O[C@@H]1O[C@H](CO)[C@@H](O)[C@H](O)[C@H]1O was inactive

Reported activity change, negative = cytotoxicity for CCOC(=O)N1CCC(NCCNC(=O)c2ccccc2C)CC1 was inactive

Reported activity change, negative = cytotoxicity for CC(C)c1ccc(CC(=O)N2CCC[C@@H](c3cccc(OC(C)(C)C(=O)O)c3)C2)cc1 was inactive

Reported activity change, negative = cytotoxicity for OC[C@H]1O[C@@H](n2cnc3c2NC=NC[C@H]3O)C[C@@H]1O was inactive

Reported activity change, negative = cytotoxicity for COC(=O)C1(Cc2ccc(O)cc2)OC(=O)C(OC)=C1c1ccc(O)cc1 (stereo unspecified) was inactive

Reported activity change, negative = cytotoxicity for CCn1c2ccccc2c2cc(CNC)ccc21 was inactive

Reported activity change, negative = cytotoxicity for NC(Cc1c[nH]c2ccccc12)C(=O)NC(CCC(=O)O)C(=O)O (stereo unspecified) was inactive

Reported activity change, negative = cytotoxicity for C=C(C)C(C)C1OC23CC4(CO2)C(CCC2C5(C)CCC(OC6OCC(O)C(OC7OC(CO)C(O)C(OC8OCC(O)C(O)C8O)C7O)C6OC6OC(CO)C(O)C6O)C(C)(C)C5CCC24C)C3C(C)(O)C1OC(C)=O (stereo unspecified) was -1.12% [at 11.6 µM] (inactive)

Reported activity change, negative = cytotoxicity for CC(C)(C)NCc1cc(Nc2ccnc3cc(Cl)ccc23)c2c(c1O)CCCC2 was 0.938% [at 0.462 µM] (inactive)

Quick batch: activity change, negative = cytotoxicity for everything below.
1. C=C1CC[C@H]2[C@@](C)(CCC[C@@]2(C)C(=O)O)[C@@H]1CCC(C)CCO (stereo partly specified)
2. C[C@@H](Nc1cc(NS(=O)(=O)N2CCC2)nc(SCc2cccc(F)c2F)n1)[C@@H](O)CO

Solution:
["inactive", "inactive"]

Quick batch: activity change, negative = cytotoxicity for everything below.
1. COC(=O)C1C(CC(C)=O)C=CC(O)C12Oc1cc(C)cc(O)c1C2=O (stereo unspecified)
2. CCC[C@@H]1C[C@@H](C(=O)N[C@@H]([C@H]2O[C@H](SC)[C@H](O)[C@@H](O)[C@@H]2O)[C@@H](C)O)N(C)C1
3. CO[C@@]12CC3[C@@H]([C@@H](O)[C@@H](OC(C)=O)C4[C@](C)(COC(C)=O)CCC[C@]34C)[C@@H](C)C1=CC(=O)O2 (stereo partly specified)

Solution:
1: inactive; 2: inactive; 3: inactive

====

Tested on: Nanoluciferase (engineered Oplophorus gracilirostris luciferase)
Procedure summary: Primary Nanoluciferase (NLuc) qHTS assay for identification of artifact compounds. (AID 1845222);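 note: NLuc secreted into diluted conditioned medium of S16 cells; 0% = DMSO and -100% = no enzyme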
Assay conditions: NLuc-conditioned medium, Nano-Glo luminescence, 5 min; series mostly up to 54.1 µM
The source made the active and inactive calls. Calls come from the whole dose curve; as a rule, active = well fitted inhibition curve with a large enough effect; inconclusive = small, poorly fitted or top-dose-only effect; inactive = flat fitted curve, though single readings scatter.
Reported metric: activity, negative = inhibition

Reported activity, negative = inhibition for Cn1ccnc1CCOC(c1cc2nccc(C(=O)O)c2[nH]1)c1ccccc1Cl (stereo not drawn) was inactive

Reported activity, negative = inhibition for COc1cc(O[C@@H]2O[C@H](CO)[C@@H](O)[C@H](O)[C@H]2O)c(CCC(=O)OC[C@H]2O[C@@H](Oc3cc(OC)c(C4OC(=O)C(C)(O)C4O)cc3CCC(=O)O)[C@H](O)[C@@H](O)[C@@H]2O)cc1C1OC(=O)C(C)(O)C1O (stereo partly drawn) was 0.289% [at 11.6 µM] (inactive)

Reported activity, negative = inhibition for COc1cc(/C=C/C(=O)OC2CC3CCC2(C)C3(C)C)ccc1O (stereo not drawn) was inactive

====

Test system: CP252
Procedure summary: qHTS profiling for inhibitors of Plasmodium falciparum proliferation (AID 504749); note: nearly all actives have a fitted effect of over 60% in size
Assay conditions: P. falciparum in erythrocytes, SYBR Green DNA, 72 h; series mostly up to 28.7 µM
Records with an inconclusive call do not appear. Activity calls are given as the source filed them. Calls come from the whole dose curve; as a rule, active = well fitted inhibition curve with a large enough effect; inconclusive = small, poorly fitted or top-dose-only effect; inactive = flat fitted curve, though single readings scatter.
Answer with one of the outcomes given here: active, inactive

Observe how each entry below is paired with its result.
Problem: How did this test come out for CCN(CC)Cc1cc(Nc2ccnc3cc(Cl)ccc23)ccc1O ?
Solution: active

Problem: How did this test come out for CC1=C(/C=C/C(C)=C/C=C/C(C)=C/CO)C(C)(C)CCC1 ?
Solution: active

Problem: How did this test come out for CCCCCCOc1ccc(C(=N)N(CCCC)CCCC)c2ccccc12 ?
Solution: active

Problem: How did this test come out for Nc1ncnc2c1ncn2[C@@H]1O[C@H](COP(=O)(O)OP(=O)(O)OP(=O)(O)O)[C@@H](O)[C@H]1O ?
Solution: inactive

Further cases:
Problem: How did this test come out for CO[C@H](C(=O)[C@@H](O)[C@@H](C)O)C1Cc2cc3cc(O[C@H]4C[C@@H](O[C@H]5C[C@@H](O)[C@H](O)[C@@H](C)O5)[C@@H](O)[C@@H](C)O4)c(C)c(O)c3c(O)c2C(=O)[C@H]1O[C@H]1C[C@@H](O[C@H]2C[C@@H](O[C@H]3C[C@](C)(O)[C@H](O)[C@@H](C)O3)[C@H](O)[C@@H](C)O2)[C@H](O)[C@@H](C)O1 (stereo not given in full) ?
Solution: active

====

Test system: CP260
Procedure summary: qHTS profiling for inhibitors of Plasmodium falciparum proliferation (AID 504749); note: nearly all actives have a fitted effect of over 60% in size; note: potency is the fitted concentration of half-maximal effect
Assay conditions: P. falciparum in erythrocytes, SYBR Green DNA, 72 h; series mostly up to 28.7 µM
Records with an inconclusive call do not appear. Activity calls are given as the source filed them. Calls follow the shape of the dose curve; as a rule, active = well fitted inhibition curve with a large enough effect; inconclusive = small, poorly fitted or top-dose-only effect; inactive = flat fitted curve, though single readings scatter.
Reported metric: Potency

Reported Potency for O=C(O)c1cc(=O)c2c3nc4ccccc4oc-3cc(=O)c2[nH]1 was 12600 nM (active)

Reported Potency for CO[C@H](C(=O)[C@@H](O)[C@@H](C)O)C1Cc2cc3cc(O[C@H]4C[C@@H](O[C@H]5C[C@@H](O)[C@H](O)[C@@H](C)O5)[C@@H](O)[C@@H](C)O4)c(C)c(O)c3c(O)c2C(=O)[C@H]1O[C@H]1C[C@@H](O[C@H]2C[C@@H](O[C@H]3C[C@](C)(O)[C@H](O)[C@@H](C)O3)[C@H](O)[C@@H](C)O2)[C@H](O)[C@@H](C)O1 (stereo partly specified) was 112 nM (active)

Reported Potency for COc1ccc2c3c1O[C@H]1C[C@@H](O)C=C[C@@]31CCN(C)C2 was inactive

Reported Potency for COCC(=O)Nc1cc(Sc2ccccc2)ccc1N=C(NC(=O)OC)NC(=O)OC was inactive

Reported Potency for COc1cc(-c2ccc(-[n+]3nc(-c4ccccc4)nn3-c3ccc([N+](=O)[O-])cc3)c(OC)c2)ccc1-[n+]1nc(-c2ccccc2)nn1-c1ccc([N+](=O)[O-])cc1 was 12600 nM (active)

Quick batch: Potency for everything below.
1. Cc1c(C)c2c(c(C)c1O)CC[C@@](C)(CCC[C@@H](C)CCC[C@@H](C)CCCC(C)C)O2
2. COC(C(=O)C(O)C(C)O)C1Cc2cc3cc(OC4CC(OC5CC(O)C(O)C(C)O5)C(O)C(C)O4)c(C)c(O)c3c(O)c2C(=O)C1OC1CC(OC2CC(OC3CC(C)(O)C(O)C(C)O3)C(O)C(C)O2)C(O)C(C)O1 (stereo unspecified)
3. CCCCCCCC(=O)O
4. CCCCCCOc1ccc(C(=N)N(CCCC)CCCC)c2ccccc12
5. C#CCOc1ccc2c(C)cc(=O)oc2c1
6. CN(C)CCCN1c2ccccc2C(C)(C)c2ccccc21
7. O=C(O)c1cc(O)c2c(c1)[O][Bi][O]2
8. CCOc1ccc(N=Nc2ccc(N)cc2N)cc1

Solution:
inactive
126 nM (active)
inactive
4470 nM (active)
inactive
inactive
inactive
inactive

====

Test system: Zika virus NS2B-NS3 protease (unlinked complex)
Procedure summary: Primary screen GU Rhodamine qHTS for Zika virus inhibitors: Unlinked NS2B-NS3 protease assay (AID 1347159); note: % is set by controls: 0 for no effect and ±100 for the full control effect; nearly all actives have a fitted effect of over 60% in size
Assay conditions: Recombinant ZIKV NS2B-NS3 protease, Rhodamine110 substrate fluorescence; series mostly up to 107 µM
Records with an inconclusive call do not appear. Active and inactive are the calls of the source. Calls come from the whole dose curve; as a rule, active = well fitted inhibition curve with a large enough effect; inconclusive = small, poorly fitted or top-dose-only effect; inactive = no such curve, though single readings can be large or run the other way.
Answer with one of the outcomes given here: True for active, False for inactive

Problem: How did this test come out for CC(=O)OCC(=O)O[C@@H]1[C@H]2[C@@H](OC(=O)c3ccccc3)[C@@H](C)C[C@]2(O)[C@H](OC(C)=O)C2(C)[C@H]3CC(C)(C)C(=O)[C@@H]3CC1(OC(C)=O)[C@@H]2OC(C)=O (stereo not given in full) ?
Solution: False

Further cases:
Problem: How did this test come out for Cc1cccc(-c2[nH]c(CNc3ccccc3F)nc2-c2ccc3ncnn3c2)n1 ?
Solution: False

Problem: How did this test come out for NC1CCC(N[C@@H]2C[C@H]2c2ccccc2)CC1 (stereo not given in full) ?
Solution: False

Problem: How did this test come out for COC1=CC(=O)O[C@@H](CCc2ccccc2)[C@@H]1O ?
Solution: False

Problem: How did this test come out for CCC(C)C(=O)O[C@@H]1[C@@H](O)[C@@H](O[C@H]2O[C@H](CO)[C@@H](O)[C@H](O)[C@H]2O)O[C@H](CO)[C@H]1O (stereo not given in full) ?
Solution: False
